Counter-ions that a name gives are not always drawn.
Value type: melting point

Which melting point reading was recorded for the compound CCNCC1(C2CCN(C(=O)CC3=C(C(=O)OC)C(c4c(Cl)cccc4Cl)C(C(=O)OC)=C(CCc4nccs4)N3)CC2)CCCCC1 (stereo not drawn) (as salt: HCl) ?
162 to 163 °C (dec.)

Another compound: COC(=O)C1=C(CCc2nccs2)NC(CC(=O)N2CCN(CCCN3C(=O)CCC3C)CC2)=C(C(=O)OC)C1c1c(Cl)cccc1Cl (stereo not drawn) (as salt: HCl)
188 to 193 °C (dec.)

Another compound: COC(=O)C1=C(CCc2nccs2)NC(CC(=O)N2CCN(CC3(C#N)CCCCC3)CC2)=C(C(=O)OC)C1c1c(Cl)cccc1Cl (stereo not drawn) (as salt: HCl)
211 to 213 °C (dec.)

----------
Where a name gives a salt, the structure may show the parent alone.
Value type: melting point

Which melting point reading was recorded for the compound COC(=O)C1=C(CCc2nccs2)NC(CC(=O)N2CCN(CCCN3CCC(C)C3=O)CC2)=C(C(=O)OC)C1c1c(Cl)cccc1Cl (stereo not drawn) ?
175 to 178 °C (dec.)

Another compound: CCNCC1(CN2CCN(C(=O)CC3=C(C(=O)OC)C(c4c(Cl)cccc4Cl)C(C(=O)OC)=C(CCc4nccs4)N3)CC2)CCCCC1 (stereo not drawn) (as salt: HCl)
206 to 210 °C (dec.)

Another compound: COC(=O)C1=C(CCc2nccs2)NC(CC(=O)N2CCN(CCC(C)(C)N3CCCC3=O)CC2)=C(C(=O)OC)C1c1c(Cl)cccc1Cl (stereo not drawn) (as salt: HCl)
179 °C (dec.)

----------
Counter-ions that a name gives are not always drawn.
Value type: melting point

Look over these answered cases.
1. COC(=O)C1=C(CCc2nccs2)NC(CC(=O)N2CCN(CCC3(C(N)=O)CCCC3)CC2)=C(C(=O)OC)C1c1c(Cl)cccc1Cl (stereo not drawn) (as salt: HCl) :: 158 to 163 °C (dec.)
2. CCN(CC)C1(CCN2CCN(C(=O)CC3=C(C(=O)OC)C(c4c(Cl)cccc4Cl)C(C(=O)OC)=C(CCc4nccs4)N3)CC2)CCCC1 (stereo not drawn) (as salt: HCl) :: 195 to 200 °C (dec.)
3. CCN(CC)C1C2CCC1CC(N1CCN(C(=O)CC3=C(C(=O)OC)C(c4c(Cl)cccc4Cl)C(C(=O)OC)=C(CCc4nccs4)N3)CC1)C2 (stereo not drawn) (as salt: HCl) :: 200 to 205 °C (dec.)

Which melting point reading was recorded for the compound COC(=O)C1=C(CCc2nccs2)NC(CC(=O)N2CCN(CCC3(N4CCCC4=O)CCCC3)CC2)=C(C(=O)OC)C1c1c(Cl)cccc1Cl (stereo not drawn) (as salt: HCl) ?
175 to 180 °C (dec.)

Another compound: COC(=O)C1=C(CCc2nccs2)NC(CC(=O)N2CCN(CC(C)(C)CNC(C)=O)CC2)=C(C(=O)OC)C1c1c(Cl)cccc1Cl (stereo not drawn)
104 to 107 °C

Another compound: COC(=O)C1=C(CCc2nccs2)NC(CC(=O)N2CCN(CC(C)(C)C#N)CC2)=C(C(=O)OC)C1c1c(Cl)cccc1Cl (stereo not drawn)
120 to 122 °C

----------
Counter-ions that a name gives are not always drawn.
Value type: melting point

Look over these answered cases.
1. CCC(CC)(CCN1CCN(C(=O)CC2=C(C(=O)OC)C(c3c(Cl)cccc3Cl)C(C(=O)OC)=C(CCc3nccs3)N2)CC1)N1CCCC1=O (stereo not shown) (as salt: HCl) :: 151 to 155 °C (dec.)
2. COC(=O)C1=C(CCc2nccs2)NC(CC(=O)N2CCN(CC3(CN)CCCC3)CC2)=C(C(=O)OC)C1c1c(Cl)cccc1Cl (stereo not shown) :: 161 to 164 °C
3. COC(=O)C1=C(CCc2nccs2)NC(CC(=O)N2CCN(CCCCN3CCOCC3)CC2)=C(C(=O)OC)C1c1c(Cl)cccc1Cl (stereo not shown) (as salt: HCl) :: 169 to 177 °C (dec.)
4. COC(=O)C1=C(CCc2nccs2)NC(CC(=O)N2CCN(CCCN3CCCC3=O)CC2)=C(C(=O)OC)C1c1c(Cl)cccc1Cl (stereo not shown) (as salt: HCl) :: 185 to 190 °C (dec.)
5. COC(=O)C1=C(CCc2nccs2)NC(CC(=O)N2CCN(CC(C)(C)CN)CC2)=C(C(=O)OC)C1c1c(Cl)cccc1Cl (stereo not shown) :: 158 to 162 °C
6. COC(=O)C1=C(CCc2nccs2)NC(CC(=O)N2CCN(CC3(CNC4CCCC4)CCCC3)CC2)=C(C(=O)OC)C1c1c(Cl)cccc1Cl (stereo not shown) (as salt: HCl) :: 174 to 177 °C (dec.)
7. COC(=O)C1=C(CCc2nccs2)NC(CC(=O)N2CCN(C3CCC(N4CCCC4=O)CC3)CC2)=C(C(=O)OC)C1c1c(Cl)cccc1Cl (stereo not shown) (as salt: HCl) :: 182 to 184 °C (dec.)
8. COC(=O)C1=C(CCc2nccs2)NC(CC(=O)N2CCN(CCC3(O)CCCCC3)CC2)=C(C(=O)OC)C1c1c(Cl)cccc1Cl (stereo not shown) (as salt: HCl) :: 188 to 190 °C (dec.)

Which melting point reading was recorded for the compound COC(=O)C1=C(CCc2nccs2)NC(CC(=O)N2CCN(CC3(CN)CCCCC3)CC2)=C(C(=O)OC)C1c1c(Cl)cccc1Cl (stereo not shown) (as salt: HCl) ?
206 to 210 °C (dec.)

Another compound: COC(=O)C1=C(CCc2nccs2)NC(CC(=O)N2CCN(CC3(N)CCCCC3)CC2)=C(C(=O)OC)C1c1c(Cl)cccc1Cl (stereo not shown) (as salt: HCl)
210 to 220 °C (dec.)
